B1: library; a variant is named by its letters at N, in order (parent)
chain: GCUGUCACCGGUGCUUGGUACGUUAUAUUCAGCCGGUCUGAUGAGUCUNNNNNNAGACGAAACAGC

Variants of: B1
assayNotes: FACS-Seq fitted mean relative fluorescence mCherry/BFP without ligand (log10 relative fluorescence); HEK293T overexpressing SLC46A1; higher = higher reporter protein expression
cond: without (6R,S)-folinic acid; ligand present: no
Quick list: FACS-Seq fitted mean (log10) per entry.
metricName: FACS-Seq fitted mean (log10)

>>> print(df.to_string())
    sequencevariant  result
 0           UAUCGG   0.113
 1           AAAACG   0.631
 2           GCGAGC   0.231
 3           UGAGCG   0.157
 4           ACAGAG   0.511
 5           UAAUGA    0.29
 6           UCGGUG  -0.084
 7           GGGGCC  -0.232
 8           CCCCUG   0.237
 9           UUUUAG   0.393
10           GGUGCU  -0.205

FYI, the data here is from the supplement of paper PMC6757056.
